System: NHBE cells
test-details: Biolog metabolic array: substrate use by NHBE cells with or without CA09 infection
Format: cell-based, human
study-conditions: Virus (CA09-infected NHBE cells, MOI 1); 11 hr
test-readout: 590 nm absorbance normalized to zero hour (substrate use), 11 hr
Number only, please.

Enquiry: Field request: 590 nm absorbance normalized to zero hour (substrate use), 11 hr | item: CO[C@H]1O[C@H](CO)[C@@H](O)[C@H](O)[C@@H]1O [a-Methyl-D-Mannoside]
Return: 1.24

Enquiry: Field request: 590 nm absorbance normalized to zero hour (substrate use), 11 hr | item: "OC[C@H]1O[C@@H](O[C@H]2[C@H](O)[C@@H](O)[C@@H](O)O[C@@H]2CO)[C@H](O)[C@@H](O)[C@H]1O"
Return: 0.39

Enquiry: Field request: 590 nm absorbance normalized to zero hour (substrate use), 11 hr | item: "O=C(O)CCC(=O)C(=O)O"
Return: 0.69

Enquiry: Field request: 590 nm absorbance normalized to zero hour (substrate use), 11 hr | item: OC[C@H]1O[C@@H](OC[C@H]2OC(O)[C@H](O)[C@@H](O)[C@@H]2O)[C@H](O)[C@@H](O)[C@@H]1O (stereo partly drawn)
Return: 1.99

Enquiry: Field request: 590 nm absorbance normalized to zero hour (substrate use), 11 hr | item: "Nc1ncnc2c1ncn2[C@@H]1O[C@H](CO)[C@@H](O)[C@H]1O"
Return: 2.60

Enquiry: Field request: 590 nm absorbance normalized to zero hour (substrate use), 11 hr | item: "CCC(=O)C(=O)O"
Return: 0.34

Enquiry: Field request: 590 nm absorbance normalized to zero hour (substrate use), 11 hr | item: "OC[C@@H](O)[C@@H](O)[C@@H](O)CO"
Return: 0.43

Enquiry: Field request: 590 nm absorbance normalized to zero hour (substrate use), 11 hr | item: "C[C@H](O)[C@H](O)[C@@H](O)[C@@H](O)C=O"
Return: 0.46

Enquiry: Field request: 590 nm absorbance normalized to zero hour (substrate use), 11 hr | item: CC(O)C(C)O (stereo not drawn)
Return: 0.39

---

Tested on: NHBE cells
test-details: Biolog metabolic array: substrate use by NHBE cells with or without CA09 infection
Format: cell-based, human
study-conditions: Virus (CA09-infected NHBE cells, MOI 1); 4 hr
Exercise: state measured 590 nm absorbance normalized to zero hour (substrate use), 4 hr for each of the compounds provided.

Enquiry: Find the measured 590 nm absorbance normalized to zero hour (substrate use), 4 hr: item CC(O)C(C)O (stereo not drawn) , target or system NHBE cells.
Return: 0.33

Enquiry: Find the measured 590 nm absorbance normalized to zero hour (substrate use), 4 hr: item "OC[C@@H](O)[C@@H](O)CO" , target or system NHBE cells.
Return: 0.34

Enquiry: Find the measured 590 nm absorbance normalized to zero hour (substrate use), 4 hr: item OC[C@H]1O[C@H](OC[C@H]2OC(O)(CO)[C@@H](O)[C@@H]2O)[C@H](O)[C@@H](O)[C@@H]1O (stereo partly drawn) , target or system NHBE cells.
Return: 0.29

Enquiry: Find the measured 590 nm absorbance normalized to zero hour (substrate use), 4 hr: item "OC[C@@H](O)[C@@H](O[C@H]1O[C@H](CO)[C@@H](O)[C@H](O)[C@H]1O)[C@H](O)[C@@H](O)CO" , target or system NHBE cells.
Return: 0.98

Enquiry: Find the measured 590 nm absorbance normalized to zero hour (substrate use), 4 hr: item CO[C@H]1O[C@H](CO)[C@@H](O)[C@H](O)[C@@H]1O [a-Methyl-D-Mannoside] , target or system NHBE cells.
Return: 0.69

Enquiry: Find the measured 590 nm absorbance normalized to zero hour (substrate use), 4 hr: item "CCC(=O)C(=O)O" , target or system NHBE cells.
Return: 0.31

Enquiry: Find the measured 590 nm absorbance normalized to zero hour (substrate use), 4 hr: item "CCCCCC(=O)O" , target or system NHBE cells.
Return: 0.33

Enquiry: Find the measured 590 nm absorbance normalized to zero hour (substrate use), 4 hr: item "C[C@H](O)[C@H](O)[C@@H](O)[C@@H](O)C=O" , target or system NHBE cells.
Return: 0.28

Enquiry: Find the measured 590 nm absorbance normalized to zero hour (substrate use), 4 hr: item "O=C(CO)[C@@H](O)[C@H](O)[C@@H](O)CO" , target or system NHBE cells.
Return: 0.28

Enquiry: Find the measured 590 nm absorbance normalized to zero hour (substrate use), 4 hr: item "OC[C@@H](O)[C@@H](O)[C@@H](O)CO" , target or system NHBE cells.
Return: 0.31

Enquiry: Find the measured 590 nm absorbance normalized to zero hour (substrate use), 4 hr: item "C[C@@H](O)[C@H](O)[C@H](O)[C@@H](O)C=O" , target or system NHBE cells.
Return: 0.64

Enquiry: Find the measured 590 nm absorbance normalized to zero hour (substrate use), 4 hr: item O=C(O)CCCO [g-Hydroxy-Butyric Acid] , target or system NHBE cells.
Return: 0.44

Enquiry: Find the measured 590 nm absorbance normalized to zero hour (substrate use), 4 hr: item "Nc1ncnc2c1ncn2[C@@H]1O[C@H](CO)[C@@H](O)[C@H]1O" , target or system NHBE cells.
Return: 1.77

Enquiry: Find the measured 590 nm absorbance normalized to zero hour (substrate use), 4 hr: item "O=C(O)CC(CC(=O)O)C(=O)O" , target or system NHBE cells.
Return: 0.29

Enquiry: Find the measured 590 nm absorbance normalized to zero hour (substrate use), 4 hr: item "O[C@H]1[C@H](O)[C@@H](O)[C@H](O)[C@@H](O)[C@H]1O" , target or system NHBE cells.
Return: 0.81

Enquiry: Find the measured 590 nm absorbance normalized to zero hour (substrate use), 4 hr: item "OC[C@H]1O[C@@H](O[C@H]2[C@H](O)[C@@H](O)[C@@H](O)O[C@@H]2CO)[C@H](O)[C@@H](O)[C@H]1O" , target or system NHBE cells.
Return: 0.28

Enquiry: Find the measured 590 nm absorbance normalized to zero hour (substrate use), 4 hr: item OC[C@@H]1OC(O)[C@@H](O)[C@H](O)[C@H]1O (stereo partly drawn) , target or system NHBE cells.
Return: 0.49

Enquiry: Find the measured 590 nm absorbance normalized to zero hour (substrate use), 4 hr: item "O=C(CO)[C@@H](O)[C@H](O)[C@H](O)CO" , target or system NHBE cells.
Return: 0.79

Enquiry: Find the measured 590 nm absorbance normalized to zero hour (substrate use), 4 hr: item "O=C(O)C[C@@H](O)C(=O)O" , target or system NHBE cells.
Return: 2.71

Enquiry: Find the measured 590 nm absorbance normalized to zero hour (substrate use), 4 hr: item "O=C(O)CCC(=O)C(=O)O" , target or system NHBE cells.
Return: 0.46

Enquiry: Find the measured 590 nm absorbance normalized to zero hour (substrate use), 4 hr: item O=C(O)C(O)C(O)C(=O)O (stereo not drawn) , target or system NHBE cells.
Return: 1.96

Enquiry: Find the measured 590 nm absorbance normalized to zero hour (substrate use), 4 hr: item OC[C@H]1O[C@@H](OC[C@H]2OC(O)[C@H](O)[C@@H](O)[C@@H]2O)[C@H](O)[C@@H](O)[C@@H]1O (stereo partly drawn) , target or system NHBE cells.
Return: 1.47

Enquiry: Find the measured 590 nm absorbance normalized to zero hour (substrate use), 4 hr: item C[C@@H]1OC(O)[C@@H](O)[C@H](O)[C@@H]1O (stereo partly drawn) , target or system NHBE cells.
Return: 0.35

Enquiry: Find the measured 590 nm absorbance normalized to zero hour (substrate use), 4 hr: item CC(=O)C(C)O (stereo not drawn) [3-Hydroxy 2-Butanone] , target or system NHBE cells.
Return: 2.37

---

Tested on: NHBE cells
test-details: Biolog metabolic array: substrate use by NHBE cells with or without CA09 infection
Type: cell-based, human
study-conditions: Virus (CA09-infected, MOI 1) NHBE cells, 2 hr
test-readout: 590 nm absorbance normalized to zero hour (substrate use), 2 hr
Number only, please.

Enquiry: Field request: 590 nm absorbance normalized to zero hour (substrate use), 2 hr | item: CO[C@@H]1O[C@H](CO)[C@@H](O)[C@H](O)[C@H]1O [b-Methyl-D-Glucoside]
Return: 2.80

Enquiry: Field request: 590 nm absorbance normalized to zero hour (substrate use), 2 hr | item: "OC[C@H]1O[C@@H](O[C@H]2[C@H](O)[C@@H](O)[C@H](O)O[C@@H]2CO)[C@H](O)[C@@H](O)[C@@H]1O"
Return: 2.09

Enquiry: Field request: 590 nm absorbance normalized to zero hour (substrate use), 2 hr | item: "OC[C@H]1O[C@H](OC[C@H]2O[C@H](OC[C@H]3O[C@H](O[C@]4(CO)O[C@H](CO)[C@@H](O)[C@@H]4O)[C@H](O)[C@@H](O)[C@@H]3O)[C@H](O)[C@@H](O)[C@H]2O)[C@H](O)[C@@H](O)[C@H]1O"
Return: 1.76

Enquiry: Field request: 590 nm absorbance normalized to zero hour (substrate use), 2 hr | item: O=C[C@H](O)[C@@H](O)[C@H](O)[C@H](O)COP(=O)(O)O [D-Glucose-6-Phosphate]
Return: 3.00

Enquiry: Field request: 590 nm absorbance normalized to zero hour (substrate use), 2 hr | item: "OC[C@@H](O)[C@@H](O)[C@H](O)[C@H](O)CO"
Return: 0.27

Enquiry: Field request: 590 nm absorbance normalized to zero hour (substrate use), 2 hr | item: "OC[C@H]1O[C@@](CO)(O[C@H]2O[C@H](CO)[C@@H](O)[C@H](O)[C@H]2O)[C@@H](O[C@H]2O[C@H](CO)[C@@H](O)[C@H](O)[C@H]2O)[C@@H]1O"
Return: 2.39

Enquiry: Field request: 590 nm absorbance normalized to zero hour (substrate use), 2 hr | item: OCC1OC(OC2C(CO)OC(OC3C(CO)OC(O)C(O)C3O)C(O)C2O)C(O)C(O)C1O (stereo not drawn)
Return: 3.05

Enquiry: Field request: 590 nm absorbance normalized to zero hour (substrate use), 2 hr | item: "O=C[C@H](O)[C@@H](O)[C@@H](O)CO"
Return: 2.45

Enquiry: Field request: 590 nm absorbance normalized to zero hour (substrate use), 2 hr | item: "OC[C@@]12OC[C@@H](O1)[C@@H](O)[C@@H](O)[C@@H]2O"
Return: 1.48

Enquiry: Field request: 590 nm absorbance normalized to zero hour (substrate use), 2 hr | item: CC(=O)N[C@H]1C(O)O[C@H](CO)[C@@H](O)[C@@H]1O (stereo partly drawn)
Return: 3.27

Enquiry: Field request: 590 nm absorbance normalized to zero hour (substrate use), 2 hr | item: OC[C@H]1O[C@H](OCC2O[C@@H](O)[C@H](O)[C@@H](O)[C@@H]2O)[C@H](O)[C@@H](O)[C@H]1O (stereo partly drawn)
Return: 3.76

Enquiry: Field request: 590 nm absorbance normalized to zero hour (substrate use), 2 hr | item: OC[C@H]1OC(O)[C@@H](O)[C@@H](O)[C@@H]1O (stereo partly drawn)
Return: 2.09

// data source = patent US11083725B2
